- Test system: pigweed
- test name: Test C preemergence/postemergence greenhouse plant response rating 0 to 100
- Assay type: in vivo, Amaranthusretroflexus
- experimental context: POSTEMERGENCE, 62 g/ha, 0 to 100 scale
measurement name: Plant response rating Pigweed
Respond with the number and no other words.

Check out these entries, answers already filled in.
CCCN1C(=O)COc2cc(F)c(-c3nn4c(c3Cl)CCCC4)cc21    100
CC(C)COc1cc(-c2nn3c(c2Cl)CCCC3)c(F)cc1Cl    100
C#CC(C)N1C(=O)COc2cc(F)c(-c3nn4c(c3Cl)CCCC4)cc21 (centres unmarked)    100
CCOC(=O)COc1cc(-c2nn3c(c2Cl)CCCC3)c(F)cc1Cl    90

As a next step, examine the compound that follows.
Query C#CCN1C(=O)COc2cc(F)c(-c3nn4c(c3Br)CCCC4)cc21 yields Plant response rating Pigweed of 100
